FYI, the data here is from PubChem BioAssay AID2060619.

system: 323965-272-R-J2-PDC complex spheroid viability; assay: Anticancer human tumor 323965-272-R-J2-PDC patient-derived pancreatic carcinoma cell line growth inhibition [CLK]; conditions: second compound 0.0316 µM; first compound 0.0316 µM; stronger effect = lower value
Readout type: viability, T/C (%)
State just the number; it will be interpreted in %.

O=C(c1cc(Cc2n[nH]c(=O)c3ccccc23)ccc1F)N1CCN(C(=O)C2CC2)CC1 + CNC(=O)c1ccc(Nc2nc(OC3CCCC3)c3c(-c4ccc5nc(C)oc5c4)c[nH]c3n2)c(OC)c1    129
COc1cccc2c1C(=O)c1c(O)c3c(c(O)c1C2=O)CC(O)(C(=O)CO)CC3OC1CC(N)C(O)C(C)O1 (stereo unspecified) + CNC(=O)c1ccc(Nc2nc(OC3CCCC3)c3c(-c4ccc5nc(C)oc5c4)c[nH]c3n2)c(OC)c1    69.4
O=c1[nH]cc(F)c(=O)[nH]1 + CN1CCN(c2cc(C(=O)Nc3cc4cc(-c5cnn(C)c5)ccc4cn3)ccn2)CC1    99.5

Prompt: Which viability, T/C is reported with 323965-272-R-J2-PDC complex spheroid viability for this entry: COc1ccc([C@@H](O)c2cc(-c3ncnc4cc(N5CCOCC5)ccc34)c(F)cc2Cl)nn1 + CN1CCN(c2cc(C(=O)Nc3cc4cc(-c5cnn(C)c5)ccc4cn3)ccn2)CC1 ?
Response: 94.2

Prompt: Also check C#Cc1c(F)ccc2cc(O)cc(-c3ncc4c(N5CC6CCC(C5)N6)nc(OCC56CCCN5CC(F)C6)nc4c3F)c12 (stereo unspecified) + CN1CCN(c2cc(C(=O)Nc3cc4cc(-c5cnn(C)c5)ccc4cn3)ccn2)CC1
Response: 101

Prompt: // same read-out, input: CC1COCCN1c1cc(C2(S(C)(=N)=O)CC2)nc(-c2ccnc3[nH]ccc23)n1 (stereo unspecified) + CN1CCN(c2cc(C(=O)Nc3cc4cc(-c5cnn(C)c5)ccc4cn3)ccn2)CC1
Response: 98.2

Prompt: What do you get for CCN1CCN(Cc2ccc(Nc3ncc(F)c(-c4cc(F)c5nc(C)n(C(C)C)c5c4)n3)nc2)CC1 + CNC(=O)c1ccc(Nc2nc(OC3CCCC3)c3c(-c4ccc5nc(C)oc5c4)c[nH]c3n2)c(OC)c1 ?
Response: 86.9

Prompt: One more compound: Nc1ccccc1NC(=O)c1ccc(CNC(=O)OCc2cccnc2)cc1 + CN1CCN(c2cc(C(=O)Nc3cc4cc(-c5cnn(C)c5)ccc4cn3)ccn2)CC1
Response: 92.1

Prompt: Next compound up: COc1c(OCCCN2CCOCC2)ccc2c3n(c(=NC(=O)c4cnc(N)nc4)nc12)CCN3 + CN1CCN(c2cc(C(=O)Nc3cc4cc(-c5cnn(C)c5)ccc4cn3)ccn2)CC1
Response: 50

Prompt: Also CCN1CCN(Cc2ccc(Nc3ncc(F)c(-c4cc(F)c5nc(C)n(C(C)C)c5c4)n3)nc2)CC1 + CN1CCN(c2cc(C(=O)Nc3cc4cc(-c5cnn(C)c5)ccc4cn3)ccn2)CC1 ?
Response: 78.2

Prompt: Please give the result for CCCS(=O)(=O)Nc1ccc(F)c(C(=O)c2c[nH]c3ncc(-c4ccc(Cl)cc4)cc23)c1F + CN1CCN(c2cc(C(=O)Nc3cc4cc(-c5cnn(C)c5)ccc4cn3)ccn2)CC1 too.
Response: 97.9

====

system: 323965-272-R-J2-PDC complex spheroid viability; test: Anticancer human tumor 323965-272-R-J2-PDC cell line growth inhibition [CLK]; conditions: second compound 0.0316 µM; first compound 0.0316 µM; stronger effect = lower value;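 also: spheroids exposed to agents for seven days before readout; percent of DMSO vehicle control wells so 100% = untreated growth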
Readout type: viability, T/C

CCc1c2c(nc3ccc(O)cc13)-c1cc3c(c(=O)n1C2)COC(=O)[C@]3(O)CC + CN1CCN(c2cc(C(=O)Nc3cc4cc(-c5cnn(C)c5)ccc4cn3)ccn2)CC1    28.6%
COC1C=CCC(C)C(C)S(=O)(=O)NC(=O)c2ccc3c(c2)N(CC2CCC21)CC1(CCCc2cc(Cl)ccc21)CO3 (stereo not drawn) + CNC(=O)c1ccc(Nc2nc(OC3CCCC3)c3c(-c4ccc5nc(C)oc5c4)c[nH]c3n2)c(OC)c1    106%

# context switch: different molecule, same viability, T/C
Prompt: Give its viability, T/C value. Item: Nc1ccn(C2OC(CO)C(O)C2(F)F)c(=O)n1 (stereo not drawn) + CN1CCN(c2cc(C(=O)Nc3cc4cc(-c5cnn(C)c5)ccc4cn3)ccn2)CC1
Response: 35.2%
